Molecular target: T1, L1 (DV1-GV4), recombinant soluble human Vδ1/Vγ4 γδ TCR heterodimer (human)
T1 construct: Biotinylated in the DELFIA ranking assay; also called human TRDV1; human Vδ1 antigen
T1 sequence (main, as listed by the source): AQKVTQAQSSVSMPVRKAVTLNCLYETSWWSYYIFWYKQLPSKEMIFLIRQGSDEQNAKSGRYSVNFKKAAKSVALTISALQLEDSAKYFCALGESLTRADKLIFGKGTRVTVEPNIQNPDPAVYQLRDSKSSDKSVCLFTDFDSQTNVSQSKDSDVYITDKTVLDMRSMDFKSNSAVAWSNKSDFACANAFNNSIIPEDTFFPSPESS
Test: SPR (Reichert 4SPR), antibody on Protein A chip, human Vδ1 antigen as analyte, 1:1 fit, mean of two replicates (Avg KD)
Give measured Kd for each item. Keep answers brief.

Challenge: Look up Kd of ADT1-7-3 (antibody, IgG1, V domains shown, IgG1) VH: EVQLVESGGGLVKPGGSLRLSCAASGFTFSDYYMSWIRQAPGKGLEWVSYISSSGSTIYYADSVKGRFTISRDNAKNSLYLQMNSLRAEDTAVYYCARVSYAEAFDIWGQGTLVTVSS VL: DIQMTQSPSSLSASVGDRVTIACRAGQSIGTYLNWYQQKPGKAPKLLIYVASSLQSGVPSRFSGSGSGTEFTLTISSLQPEDFATYYCQQSYSGLDTFGRGTKVEIK and report it.
Response given: 3.78 nM

Challenge: Look up Kd of ADT1-7-61 (antibody, IgG1, V domains shown, IgG1) VH: EVQLVESGGGLVKPGGSLRLSCAASGFTFSDYYMSWIRQAPGKGLEWVSYISSSGSTIYYADSVKGRFTISRDNAKNSLYLQMNSLRAEDTAVYYCARDDYDDAFDIWGQGTLVTVSS VL: DIQMTQSPSSLSASVGDRVTIACRAGQSIGTYLNWYQQKPGKAPKLLIYVASSLQSGVPSRFSGSGSGTEFTLTISSLQPEDFATYYCQQSASELLTFGRGTKVEIK and report it.
Response given: 1.04 nM

Challenge: Look up Kd of ADT1-7-20 (antibody, IgG1, V domains shown, IgG1) VH: EVQLVESGGGLVKPGGSLRLSCAASGFTFSDYYMSWIRQAPGKGLEWVSYISSSGSTIYYADSVKGRFTISRDNAKNSLYLQMNSLRAEDTAVYYCARVDYQEAFDIWGQGTLVTVSS VL: DIQMTQSPSSLSASVGDRVTIACRAGQSIGTYLNWYQQKPGKAPKLLIYVASSLQSGVPSRFSGSGSGTEFTLTISSLQPEDFATYYCQQSYSGLDTFGRGTKVEIK and report it.
Response given: 4.99 nM

Challenge: Look up Kd of ADT1-7 (parental) (antibody, IgG1, V domains shown, IgG1; also called E07; 1245_P01_E07) VH: QVQLVESGGGLVKPGGSLRLSCAASGFTFSDYYMSWIRQAPGKGLEWVSYISSSGSTIYYADSVKGRFTISRDNAKNSLYLQMNSLRAEDTAVYYCARVDYADAFDIWGQGTLVTVSS VL: DIQMTQSPSSLSASVGDRVTIACRAGQSIGTYLNWYQQKPGKAPKLLIYVASSLQSGVPSRFSGSGSGTEFTLTISSLQPEDFATYYCQQSYSTLLTFGRGTKVEIK and report it.
Response given: 38.1 nM
